target: Protein translocase subunit SecA (Escherichia coli (strain K12)); assay: Assay to Identify E. coli SecA ATPase Inhibitors; format: functional; set-up: scale not given: direction of the effect not stated beside the values; conditions: 30 µM
Results with a measured potency or affinity are listed apart.
test readout: Percent Effect

>>> print(df.to_string())
                                   molecule    test_readout  recorded_value
0  CC(C)CCNC(=O)c1sccc1N(C)S(=O)(=O)c1ccccc1  Percent Effect         -0.473%

Recorded result, c1coc(CN2CCCC3(COCCN(Cc4c[nH]nn4)C3)C2)c1 (centres undefined) , Percent Effect: -3.44%

response.value for Cc1ccc(C(CNCC2CC2)N2CCOCC2)s1 (centres undefined) (field: Percent Effect) = 4.94%

Consider O=C(NCCc1cccc(F)c1)NCC(O)c1cccc(F)c1 (centres undefined) . Its measured Percent Effect is -2.56%

For this molecule ( "O=C(c1ccc(F)cc1)N1C[C@@H]2OCCN(c3ncccn3)[C@@H]2C1" ), measured Percent Effect is -5.16%

The molecule listed as "CCN(CC)Cc1cn2c(n1)CN(C(=O)c1cnccn1)CC2" shows Percent Effect equal to -2.54%

// Percent Effect value for CCCN1CCC(N(Cc2ncc(C)o2)C(C)=O)C1 (centres undefined) : -6.17%

* * *

biological target: AMP-activated protein kinase, AMPK (Homo sapiens) (UniProt P54646+O43741+P54619+Q9UGJ0+Q9Y478+Q13131+Q9UGI9); assay: AMP-dependent Kinase enzyme assay. An in vitro enzyme assay that detects ADP turnover that is directly proportional to AMPK activity. This uses naive AMPK that is activated during the assay with MK-8722; assay type: functional; design: scale not given: direction of the effect not stated beside the values; settings: 30 µM
test readout: Percent Effect (%)
// return numeric value only (unit: %, not printed)

                                   molecule    test_readout  reading_unit  recorded_value
0  Cc1n[nH]cc1CNc1ccc2c(c1)CN(C(=O)OC(C)(C)C)CC2  Percent Effect             %           -9.51
1  CCn1ccnc1CN1CCN(C(C)C(=O)NC2CCCCC2)CC1 (stereo unspecified)  Percent Effect             %           -1.96
2                   CC(C)c1nc(CN2CCCCC2)cs1  Percent Effect             %            15.4
3        Cc1nc(C)c2c(n1)CCN(C(=O)CC1CC1)CC2  Percent Effect             %            4.71

The record that follows has no Percent Effect shown yet.
The recorded Percent Effect for Cc1ccc(-c2nc(CNC3CCc4ncnn4C3)co2)c(C)c1 (stereo unspecified) is -3.33

* * *

target: Protein translocase subunit SecA (Escherichia coli (strain K12)) (UniProt P10408); experiment: Assay to Identify E. coli SecA ATPase Inhibitors; type: functional; parameters: scale not given: direction of the effect not stated beside the values; conditions: 30 µM
Sequence (P10408 whole entry): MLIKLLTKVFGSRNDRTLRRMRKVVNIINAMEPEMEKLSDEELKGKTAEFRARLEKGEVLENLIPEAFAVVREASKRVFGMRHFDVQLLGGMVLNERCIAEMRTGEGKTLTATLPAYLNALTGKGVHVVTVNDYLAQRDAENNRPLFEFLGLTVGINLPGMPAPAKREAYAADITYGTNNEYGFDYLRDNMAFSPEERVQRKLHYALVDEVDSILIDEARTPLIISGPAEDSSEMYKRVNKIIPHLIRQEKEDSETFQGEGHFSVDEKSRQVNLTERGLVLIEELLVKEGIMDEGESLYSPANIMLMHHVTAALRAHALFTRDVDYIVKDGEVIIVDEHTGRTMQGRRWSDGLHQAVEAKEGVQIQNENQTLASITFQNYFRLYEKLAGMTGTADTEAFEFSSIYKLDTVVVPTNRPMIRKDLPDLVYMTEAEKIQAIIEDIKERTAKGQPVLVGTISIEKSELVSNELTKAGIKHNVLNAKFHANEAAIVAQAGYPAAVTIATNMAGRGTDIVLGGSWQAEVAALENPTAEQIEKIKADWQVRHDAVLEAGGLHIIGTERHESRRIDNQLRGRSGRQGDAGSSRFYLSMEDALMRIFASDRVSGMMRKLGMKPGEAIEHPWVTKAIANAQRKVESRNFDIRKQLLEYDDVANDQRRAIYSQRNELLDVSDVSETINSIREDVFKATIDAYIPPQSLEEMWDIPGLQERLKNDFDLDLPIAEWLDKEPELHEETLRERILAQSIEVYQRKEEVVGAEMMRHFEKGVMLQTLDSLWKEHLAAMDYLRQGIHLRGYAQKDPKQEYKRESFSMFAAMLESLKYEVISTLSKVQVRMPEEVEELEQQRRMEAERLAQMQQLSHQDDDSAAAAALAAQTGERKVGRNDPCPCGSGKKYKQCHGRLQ
Measured potencies and affinities stand elsewhere.
test readout: Percent Effect (%)
Give just the number in %; leave the unit off.

Worked examples, 2 compounds total:
>>> print(df.to_string())
                                   compound  reading_unit  recorded_value
0  CCn1cc(CN(C)S(=O)(=O)c2ccc(NC(C)=O)cc2)cn1             %            2.78
1      O=C(NCc1cncc2c1CCN(Cc1cccs1)C2)C1CC1             %            1.73

Memo: "COc1ccc(NC(=O)N2CCN(c3ncccn3)CC2)cn1" , reported Percent Effect: -0.45

The measured Percent Effect associated with Cn1cc(CC2CCN(C(=O)NCc3cn4ccsc4n3)C2)cn1 (stereo not given) reads -6.21

For reference, reported Percent Effect for "Cc1ccccc1C1(CNc2nnc(C)c(C)c2C#N)CCOCC1" stands at -3.65

Field Percent Effect (entry COCC(NC(=O)c1cc[nH]n1)c1cccc(C(F)(F)F)c1 (stereo not given) ) reads -5.2

Record summary for Cc1ccc2ncnc(N3CCOCC3c3c(C)nn(C)c3C)c2c1 (stereo not given) : reported Percent Effect = -3.4

Entry "Cc1oc(C(=O)O)cc1S(=O)(=O)Nc1cc(Cl)ccc1F" , Percent Effect reported as -4.85

Percent Effect recorded for this compound, CC(NC(=O)CCOc1ccccc1Cl)c1nnc2n1CCC2 (stereo not given) , is -2.36

Reported Percent Effect ( Cn1cccc1CN1CCC2(CCCN(C(=O)c3cnccn3)C2)C1 (stereo not given) ) = 0.875

GET /value?item= Cc1cnc2n(c1=O)CC(C(=O)Nc1cccc3cccnc13)CS2 (stereo not given) &field=Percent Effect returns -3.5

// Percent Effect value for "Cn1ccc(C(=O)NC2CCN(c3ncccn3)CC2)cc1=O" : -2.08

Input "COc1cccc(S(=O)(=O)NC(=O)COC2CCCC2)c1" . Output Percent Effect: -1.91

* * *

target: Ubiquitin-activating enzyme e1, putative (Leishmania donovani (strain BPK282A1)) (UniProt E9BSI1); test: Leishmania donovani Ubiquitin Activating Enzyme (LdE1); format: functional; design: scale not given: direction of the effect not stated beside the values; settings: 30 µM
Sequence (E9BSI1 as listed by the source): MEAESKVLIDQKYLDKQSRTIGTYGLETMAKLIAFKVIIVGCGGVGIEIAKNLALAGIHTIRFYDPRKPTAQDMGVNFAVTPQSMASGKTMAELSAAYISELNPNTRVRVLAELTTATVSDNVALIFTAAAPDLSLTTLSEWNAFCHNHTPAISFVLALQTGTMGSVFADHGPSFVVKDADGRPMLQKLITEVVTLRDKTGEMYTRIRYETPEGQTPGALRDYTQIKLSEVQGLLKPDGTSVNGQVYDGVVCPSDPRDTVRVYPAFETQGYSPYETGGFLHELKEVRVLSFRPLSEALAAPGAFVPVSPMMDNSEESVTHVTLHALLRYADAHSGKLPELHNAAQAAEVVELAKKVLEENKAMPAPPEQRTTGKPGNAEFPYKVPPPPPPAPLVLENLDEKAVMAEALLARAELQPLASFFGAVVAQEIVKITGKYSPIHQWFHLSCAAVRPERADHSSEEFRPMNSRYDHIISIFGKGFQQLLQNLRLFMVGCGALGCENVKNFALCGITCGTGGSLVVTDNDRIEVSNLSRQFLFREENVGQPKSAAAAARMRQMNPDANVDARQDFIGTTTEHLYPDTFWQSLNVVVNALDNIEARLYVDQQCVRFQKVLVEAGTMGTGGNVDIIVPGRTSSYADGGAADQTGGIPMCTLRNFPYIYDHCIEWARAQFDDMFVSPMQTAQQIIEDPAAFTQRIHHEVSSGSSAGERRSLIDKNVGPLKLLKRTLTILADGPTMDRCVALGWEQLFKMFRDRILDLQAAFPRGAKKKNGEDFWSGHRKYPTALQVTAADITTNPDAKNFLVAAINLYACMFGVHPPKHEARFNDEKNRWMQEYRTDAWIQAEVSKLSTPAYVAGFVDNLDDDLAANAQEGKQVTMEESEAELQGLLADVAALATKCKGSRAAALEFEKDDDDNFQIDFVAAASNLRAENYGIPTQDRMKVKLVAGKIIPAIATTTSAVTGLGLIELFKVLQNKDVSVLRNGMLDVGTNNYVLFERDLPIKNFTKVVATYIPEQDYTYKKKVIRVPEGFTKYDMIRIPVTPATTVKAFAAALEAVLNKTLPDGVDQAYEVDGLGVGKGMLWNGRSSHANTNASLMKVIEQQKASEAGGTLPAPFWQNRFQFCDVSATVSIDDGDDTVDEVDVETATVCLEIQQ
Measured potencies and affinities stand elsewhere.
Listed molecules paired with reported Percent Effect
# include the unit after the value

Reference set, count: 5
                                   molecule  recorded_value
0  CC1CCCN(CC(=O)N2CCC(c3ncc4c(n3)CCNC4)CC2)C1 (stereo unspecified)           2.67%
1  O=C(c1cccc2c1OCO2)N1CCCC(n2cccn2)C1 (stereo unspecified)            2.7%
2  COCCO[C@@H]1C[C@H]2CN(C(=O)c3cnccn3)CCN2C1           5.33%
3  Cc1ccc(CN2C[C@@H]3COC[C@H](C(=O)N4CCCCO4)[C@@H]3C2)o1           13.3%
4             COCCN(C)Cc1ccc(OC)c(OC(F)F)c1              0%

molecule "O=C(CN1CCc2c(ncn2C2CC2)C1)NC1CC1" , Percent Effect observed: -3.8%

Percent Effect in this record for Clc1ccc2cccnc2c1CN1CCCC(Cn2cncn2)C1 (stereo unspecified) : 0%

Notebook: COc1cccc(CN2CCCCCC2c2cccs2)c1O (stereo unspecified) , Percent Effect read as 0%

Given item "COc1ccc(CN2C[C@H]3CC[C@](O)(c4ccc(C)cn4)[C@H]3C2)c(F)c1" , the value recorded as its Percent Effect is 6.76%

Lab book: Percent Effect of COc1c(CNC2CCCc3ccccc32)c(C(C)C)nn1C (stereo unspecified) noted as 21.6%

According to the records, this molecule O=C(C1CCCCN1Cc1nc(-c2ccco2)no1)N1CCCC1 (stereo unspecified) displays Percent Effect of -2.7%

Percent Effect recorded for this molecule, "Cc1ccsc1[C@@H]1CCN(C(=O)CCC(=O)N2CCCCCC2)C[C@H]1O" , is 6.94%

According to the records, this molecule "O=C(NCCN1CCOCC1)c1n[nH]c(=O)c2ccccc12" displays Percent Effect of 28.6%

* * *

biological target: AMP-activated protein kinase, AMPK (Homo sapiens) (UniProt P54646+O43741+P54619+Q9UGJ0+Q9Y478+Q13131+Q9UGI9); assay: AMP-dependent Kinase enzyme assay. An in vitro enzyme assay that detects ADP turnover that is directly proportional to AMPK activity. This uses naive AMPK that is activated during the assay with MK-8722; type: functional; parameters: scale not given: direction of the effect not stated beside the values; details: 30 µM
test readout: Percent Effect (%)
Record the value in %, omitting the unit from your answer.

>>> print(df.to_string())
                                   compound  recorded_value
0  Cc1ccc(CNCc2nnc3n2CC(C(F)(F)F)CC3)cc1 (centres undefined)           -2.64
1  CCN(CC)CC1CN(CCc2ccccc2)Cc2nccn2C1 (centres undefined)             1.1

Would you kindly look at the next entry?
The compound CC(Cn1cccn1)NCc1csc(-c2ccccc2F)n1 (centres undefined) showed Percent Effect equal to -14.2

* * *

Target: Tyrosyl-tRNA synthetase, putative (Trypanosoma cruzi (strain CL Brener))
Sequence (whole entry): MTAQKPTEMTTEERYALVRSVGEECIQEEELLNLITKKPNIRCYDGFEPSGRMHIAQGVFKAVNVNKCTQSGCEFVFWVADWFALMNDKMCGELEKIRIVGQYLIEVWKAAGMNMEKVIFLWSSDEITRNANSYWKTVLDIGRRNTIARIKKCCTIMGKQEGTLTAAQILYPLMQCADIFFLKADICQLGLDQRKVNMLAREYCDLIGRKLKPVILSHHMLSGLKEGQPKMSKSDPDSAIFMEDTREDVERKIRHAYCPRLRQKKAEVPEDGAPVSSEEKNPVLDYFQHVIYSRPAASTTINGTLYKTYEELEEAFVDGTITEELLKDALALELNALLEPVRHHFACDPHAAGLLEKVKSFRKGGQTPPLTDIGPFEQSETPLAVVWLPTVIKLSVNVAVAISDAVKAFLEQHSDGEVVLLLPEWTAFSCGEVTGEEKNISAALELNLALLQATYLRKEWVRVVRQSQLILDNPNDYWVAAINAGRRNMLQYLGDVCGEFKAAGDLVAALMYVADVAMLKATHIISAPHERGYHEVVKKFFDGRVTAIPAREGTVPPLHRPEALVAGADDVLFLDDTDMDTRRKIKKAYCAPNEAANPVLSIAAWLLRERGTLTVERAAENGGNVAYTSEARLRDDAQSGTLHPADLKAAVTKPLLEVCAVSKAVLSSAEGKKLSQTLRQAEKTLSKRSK
Assay: Trypanosoma cruzi tyrosyl tRNA synthetase (TcYRS) SOP
Assay type: functional
Set-up: scale not given: direction of the effect not stated beside the values
Conditions: 30 µM
test readout: Percent Effect (%)
Please give a number only; it is taken to be in %.

Worked examples, 3 molecules total:
>>> df
                                   molecule  recorded_value
0  CN(C)C(=O)N1CCc2c(nnn2C)C1COCc1ccccc1 (stereo unspecified)            27.5
1  CNC(=O)N1CC[C@@H]2CN(Cc3cccnc3)S(=O)(=O)[C@@H]2CC1            15.4
2              COc1c(C)cnc(CSc2nnc(C)s2)c1C            6.17

Looking up "CC(C)c1n[nH]c(C(=O)Nc2ccncc2)c1Br" , I found its Percent Effect recorded as 8.86

// sample CC(C)S(=O)(=O)N1CCC(c2cc3n(n2)[C@@H](C(F)(F)F)C[C@@H](C)N3)C1 (stereo partly specified) , its Percent Effect was 6.41

Value of measured Percent Effect for the entry "CCN(Cc1ccc2c(c1)OCCO2)C(=O)NCc1nc(C)cs1" : 11.8
